Entries annotated with measured Trimeric HA Binding RLU
# subject-of-test: recombinant homotrimeric HA, A/Solomon Islands/3/06 H1N1 (Influenza A virus A/Solomon Islands/3/06 (H1N1))
# procedure-text: trimeric HA microarray, transfection set 5
# condition-set: remark: other sources report otherwise

Below, 2 binders whose answers are already recorded.
| binder | Trimeric HA Binding RLU |
| --- | --- |
| TCN-552 (5249_I23) (antibody, V domains shown) VH: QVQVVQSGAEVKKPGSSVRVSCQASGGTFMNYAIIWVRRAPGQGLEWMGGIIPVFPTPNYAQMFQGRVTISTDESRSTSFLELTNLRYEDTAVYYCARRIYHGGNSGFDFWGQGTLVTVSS VL: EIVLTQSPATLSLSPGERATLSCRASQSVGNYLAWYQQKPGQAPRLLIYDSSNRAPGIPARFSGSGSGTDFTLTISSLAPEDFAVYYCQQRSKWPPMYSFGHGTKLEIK | 48600 RLU |
| TCN-543 (5081_G23) (antibody, V domains shown) VH: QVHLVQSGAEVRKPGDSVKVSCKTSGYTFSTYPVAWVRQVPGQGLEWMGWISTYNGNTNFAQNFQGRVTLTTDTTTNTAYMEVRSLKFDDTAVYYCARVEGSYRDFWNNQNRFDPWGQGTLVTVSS VL: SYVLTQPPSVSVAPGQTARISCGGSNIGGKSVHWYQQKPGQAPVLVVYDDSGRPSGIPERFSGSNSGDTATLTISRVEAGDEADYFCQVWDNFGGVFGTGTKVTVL | 43500 RLU |

Now let's try a different one.
Exercise: Entry TCN-538 (3206_O17) (antibody, V domains shown) VH: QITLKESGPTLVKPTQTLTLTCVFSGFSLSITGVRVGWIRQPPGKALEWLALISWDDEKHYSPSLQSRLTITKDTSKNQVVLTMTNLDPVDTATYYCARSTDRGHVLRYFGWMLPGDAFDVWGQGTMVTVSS VL: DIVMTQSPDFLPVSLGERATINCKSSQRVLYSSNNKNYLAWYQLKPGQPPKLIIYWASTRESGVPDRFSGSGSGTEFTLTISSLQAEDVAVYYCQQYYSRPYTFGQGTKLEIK : reported Trimeric HA Binding RLU = ?
Solution: 1960 RLU
